- Test system: PC-12
- Test summary: Antioxidant activity against H2O2-induced cell damage in rat PC12 cells assessed as cell viability at 1 uM after 24 hrs by MTT assay (reference value: 64.34 +/- 1.02 %)
- Assay type: functional
- Condition context: PC-12, 24 h, read-out: Activity
Reported metric: viability at 1 µM (%)
Your answer is read as %, so omit the unit and give the number.

C=C1CC[C@H]2C(C)(C)CCC[C@]2(C)[C@H]1CCC1=CC(=O)OC1	67.1
CC1=CC(=O)C(=C(C)C)C[C@H]2[C@H]1CC[C@]2(C)O	66.4
Cc1cc2oc(=O)c(C)c-2cc2c1CC[C@H]2C	68.1
CCO[C@]12C/C(C)=C/CC[C@@H](C)C(=O)CC1=C(C)C(=O)O2	77.7

Shifting focus to the compound that follows.
Incoming: Reported viability at 1 µM, compound CC(C)C1=CC[C@@](C)(O)[C@@H]2CC[C@@](C)(O)[C@@H]2C1 : ____
Outgoing: 69.5
